# subject_of_test: human recombinant STK24 (aka MST3) (Homo sapiens)
# Sequence (Q9Y6E0 whole entry): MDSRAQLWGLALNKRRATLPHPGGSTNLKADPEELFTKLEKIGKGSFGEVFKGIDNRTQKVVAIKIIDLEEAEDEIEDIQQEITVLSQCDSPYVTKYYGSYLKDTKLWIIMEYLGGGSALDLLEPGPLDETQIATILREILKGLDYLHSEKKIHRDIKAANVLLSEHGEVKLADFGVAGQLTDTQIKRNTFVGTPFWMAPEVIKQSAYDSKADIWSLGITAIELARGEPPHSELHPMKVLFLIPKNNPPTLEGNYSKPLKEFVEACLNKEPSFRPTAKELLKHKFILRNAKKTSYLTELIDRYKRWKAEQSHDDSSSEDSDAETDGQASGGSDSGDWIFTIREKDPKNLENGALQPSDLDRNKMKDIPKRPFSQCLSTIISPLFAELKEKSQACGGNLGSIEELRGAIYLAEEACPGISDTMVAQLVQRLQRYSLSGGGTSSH
# cond: inhibitor
Exam item: assign label 1 to entries whose MST3 % activity remaining (1µM) is below 20% and label 0 to entries at or above 20%. Note that a value of exactly 20% receives label 0.

C[C@H](NC(=O)c1c[nH]c2ncc(C3CC3)nc12)C(C)(C)O :: label 1
COCCCNC(=O)c1c[nH]c2ncc(C3CC3)nc12 :: label 0
C[C@H](NC(=O)c1c[nH]c2ncc(-c3ccccc3)nc12)C(C)(C)C :: label 1
CNS(=O)(=O)CCNC(=O)c1c[nH]c2ncc(C3CC3)nc12 :: label 0
CS(=O)(=O)N1CCN(C(=O)c2c[nH]c3ncc(C4CC4)nc23)CC1 :: label 0

Q. Take the molecule `COc1cccc([C@H](C)NC(=O)c2c[nH]c3ncc(-c4ccccc4)nc23)c1` and say whether its MST3 % activity remaining (1µM) is less than 20%.
A. label 0

Q. Take the molecule `C[C@H](NC(=O)c1c[nH]c2ncc(-c3ccccc3)nc12)C(C)(C)O` and say whether its MST3 % activity remaining (1µM) is less than 20%.
A. label 1

Q. Take the molecule `O=C(c1c[nH]c2ncc(C3CC3)nc12)N1CCOCC1` and say whether its MST3 % activity remaining (1µM) is less than 20%.
A. label 0

Q. Take the molecule `CN1C(=O)c2sccc2N(C)c2nc(Nc3ccc(S(N)(=O)=O)cc3)ncc21` and say whether its MST3 % activity remaining (1µM) is less than 20%.
A. label 1

---

# subject_of_test: human recombinant STK3 (MST2) (Homo sapiens, UniProt Q13188)
# Sequence (Q13188 1-491 limits assumed): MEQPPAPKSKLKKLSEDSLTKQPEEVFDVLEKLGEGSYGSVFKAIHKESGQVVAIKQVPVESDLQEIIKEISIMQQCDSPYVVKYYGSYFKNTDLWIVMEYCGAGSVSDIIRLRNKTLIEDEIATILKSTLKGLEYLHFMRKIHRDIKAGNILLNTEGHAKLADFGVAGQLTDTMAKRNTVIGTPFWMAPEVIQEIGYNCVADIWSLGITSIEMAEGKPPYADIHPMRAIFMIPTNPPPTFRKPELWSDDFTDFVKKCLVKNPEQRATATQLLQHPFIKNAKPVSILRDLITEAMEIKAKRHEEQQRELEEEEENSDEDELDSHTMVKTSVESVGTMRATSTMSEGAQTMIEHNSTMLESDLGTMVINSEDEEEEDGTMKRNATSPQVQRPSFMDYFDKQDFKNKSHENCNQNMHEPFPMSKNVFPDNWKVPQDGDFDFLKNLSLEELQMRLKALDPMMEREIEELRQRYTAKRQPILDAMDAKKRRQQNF
# experiment_notes: radiometric kinase assay
# Format: biochemical
# cond: ATP at Km; myelin basic protein substrate
value_type: pIC50
Give bare numbers, as −log10 of the molar value.

Q. Identify the reported pIC50 for the following entry. COc1cccc([C@H](C)NC(=O)c2c[nH]c3ncc(-c4ccccc4)nc23)c1 [A5, UNC-BE4-040-1]
A. 6.41
